Reported pIC50 values for a set of molecules
Target: K-Ras G12C (Homo sapiens (Human), UniProt P01116+P62937, G12C)
Sequence (P01116-2 other isoform, or with tags, fused parts or gaps G12C): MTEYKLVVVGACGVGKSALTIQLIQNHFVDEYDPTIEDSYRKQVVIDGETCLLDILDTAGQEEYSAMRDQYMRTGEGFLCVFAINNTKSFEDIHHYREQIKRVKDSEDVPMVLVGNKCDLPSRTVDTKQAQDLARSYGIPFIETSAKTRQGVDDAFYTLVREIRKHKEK
Sequence (P62937 whole entry): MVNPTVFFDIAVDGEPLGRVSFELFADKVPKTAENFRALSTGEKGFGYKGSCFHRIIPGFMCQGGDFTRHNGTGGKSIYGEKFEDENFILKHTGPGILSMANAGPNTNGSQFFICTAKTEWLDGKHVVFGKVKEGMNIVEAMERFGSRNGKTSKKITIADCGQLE
Assay: Ras-Raf (BRAF RBD) disruption / FRET / MOA assay, KRAS G12C
Type: biochemical
Conditions: KRAS G12C; Ras-Raf disruption/FRET/MOA assay; read-out: IC50* KRAS G12C FRET data
pIC50: −log10 of the molar value.
observable: pIC50

[[record]]
molecule = "CCn1c(-c2cccnc2[C@H](C)OC)c2c3cc(ccc31)-c1cc(CF)cc(c1)C[C@H](NC(=O)[C@H](C(C)C)N1CC[C@]3(CCN(C(=O)C#CC(C)(C)N(C)C)C3)C1=O)C(=O)N1CCC[C@H](N1)C(=O)OCC(C)(C)C2 (atropisomer, axis not shown) [Example A673]"
systemname = "K-Ras G12C (Homo sapiens (Human), UniProt P01116+P62937, G12C)"
result = "> 8.00"

[[record]]
molecule = "CCn1c(-c2cccnc2[C@H](C)OC)c2c3cc(ccc31)-c1cccc(c1)C[C@H](NC(=O)[C@H](C(C)C)N(C)C(=O)C1CCN(C(=O)C#C[C@@H]3CC(F)(F)CN3C)C1)C(=O)N1CCC[C@H](N1)C(=O)OCC(C)(C)C2 (some centres unmarked) [Example A526]"
systemname = "K-Ras G12C (Homo sapiens (Human), UniProt P01116+P62937, G12C)"
result = "7.00 to 8.00"

[[record]]
molecule = "C=CC(=O)N1CC[C@H](C(=O)N(C)[C@H](C(=O)N[C@H]2Cc3cc(O)cc(c3)-c3ccc4c(c3)c(c(-c3ccc(N5CCN(C)CC5)nc3)n4CC)CC(C)(C)COC(=O)[C@@H]3CCCN(N3)C2=O)C(C)C)C1 [Example A089]"
systemname = "K-Ras G12C (Homo sapiens (Human), UniProt P01116+P62937, G12C)"
result = "6.00 to 7.00"

[[record]]
molecule = "C=CC(=O)N1C[C@@H]2CN(C(=O)N(C)[C@H](C(=O)N[C@H]3Cc4nc(cs4)-c4ccc5c(c4)c(c(-c4cccnc4[C@H](C)OC)n5CC)CC(C)(C)COC(=O)[C@@H]4CCCN(N4)C3=O)C(C)C)C[C@@H]2C1 (atropisomer, axis not shown) [Example A389]"
systemname = "K-Ras G12C (Homo sapiens (Human), UniProt P01116+P62937, G12C)"
result = "7.00 to 8.00"

[[record]]
molecule = "C=CC(=O)N1CC[C@H](C(=O)N(C)[C@H](C(=O)N[C@H]2Cn3cnc(n3)-c3ccc4c(c3)c(c(-c3cccnc3[C@H](C)OC)n4CC)CC(C)(C)COC(=O)[C@@H]3CCCN(N3)C2=O)C(C)C)C1 (atropisomer, axis not shown) [Example A506]"
systemname = "K-Ras G12C (Homo sapiens (Human), UniProt P01116+P62937, G12C)"
result = "6.00 to 7.00"

[[record]]
molecule = "CCn1c(-c2cccnc2[C@H](C)OC)c2c3cc(ccc31)-c1cccc(c1)C[C@H](NC(=O)[C@@H](COC1CN(C(=O)C#CC(C)(C)N(C)C3CC3)C1)C(C)C)C(=O)N1CCC[C@H](N1)C(=O)OCC(C)(C)C2 (atropisomer, axis not shown) [Example A613]"
systemname = "K-Ras G12C (Homo sapiens (Human), UniProt P01116+P62937, G12C)"
result = "6.00 to 7.00"

[[record]]
molecule = "C=CC(=O)N1CC(OCC(C(=O)N[C@H]2Cc3cccc(c3)-c3ccc4c(c3)c(c(-c3cccnc3[C@H](C)OC)n4CC)CC(C)(C)COC(=O)[C@@H]3CCCN(N3)C2=O)C(C)C)C1 (mixture of isomers) [Example A484]"
systemname = "K-Ras G12C (Homo sapiens (Human), UniProt P01116+P62937, G12C)"
result = "6.00 to 7.00"

[[record]]
molecule = "CCn1c(-c2ccccc2CN(C)C)c2c3cc(ccc31)-c1cc(O)cc(c1)C[C@H](NC(=O)[C@@H](C(C)C)N(C)C(=O)c1ncc(NC(=O)/C=C/CN(C)C)n1C)C(=O)N1CCC[C@H](N1)C(=O)OCC(C)(C)C2 [Example A126]"
systemname = "K-Ras G12C (Homo sapiens (Human), UniProt P01116+P62937, G12C)"
result = "7.00 to 8.00"

